Numbers sourced from patent US20240270821A1.

molecular target: hGIPR (Homo sapiens, UniProt P48546); assay: Functional cAMP activation in the presence of 0.1% casein (no HSA); assay type: cell-based; conditions: in the presence of 0.1% casein (no HSA); geometric mean; read-out: Relative cAMP EC50, hGIPR;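 also: intracellular cAMP rise after 30 min at 37 °C read by HTRF against a standard curve, scaled between buffer alone (0%) and top control ligand concentration (100%), four-parameter fit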
Sequence (P48546 22-466): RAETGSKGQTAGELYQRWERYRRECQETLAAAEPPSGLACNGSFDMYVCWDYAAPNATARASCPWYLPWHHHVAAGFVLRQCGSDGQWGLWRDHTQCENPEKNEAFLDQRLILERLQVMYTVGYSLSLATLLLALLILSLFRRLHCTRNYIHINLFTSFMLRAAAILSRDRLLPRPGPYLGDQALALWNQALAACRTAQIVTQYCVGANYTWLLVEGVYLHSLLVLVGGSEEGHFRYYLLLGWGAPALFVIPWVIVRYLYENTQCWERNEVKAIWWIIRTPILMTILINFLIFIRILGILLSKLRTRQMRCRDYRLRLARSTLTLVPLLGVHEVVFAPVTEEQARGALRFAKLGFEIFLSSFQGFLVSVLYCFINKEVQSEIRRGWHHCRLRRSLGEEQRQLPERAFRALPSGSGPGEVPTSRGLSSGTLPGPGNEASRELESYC
Starred links: 1 amine or outer side, 2 acyl side, 3 side chain; linkers in the order of their positions; H or OH if unused. Non-standard residues stand in square brackets, D forms with d. Groups on a side chain read outwards from the residue. No end group written: not given here. *: point of attachment. C18 diacid = O=C(O)CCCCCCCCCCCCCCCCC(=O)*; γGlu = O=C(O)[C@H](CCC(=O)[*:2])N[*:1]; αMe4Pal = C[C@](N)(Cc1ccncc1)C(=O)O; 4Pal = N[C@@H](Cc1ccncc1)C(=O)O; αMeL = CC(C)C[C@](C)(N)C(=O)O; Orn = NCCC[C@H](N)C(=O)O; AEEA = NCCOCCOCC(=O)O; Aib = CC(C)(N)C(=O)O
recorded endpoint: pEC50
Answer as the number alone; pEC50 is minus log10 of concentration in mol/L.

Check out these entries, answers already filled in.
# substance, result
records = [
    ("Y[Aib]QGTFTSD[4Pal]SQ[αMeL]LDKK([γGlu-γGlu-C18 diacid])AQ[αMe4Pal]AFIE[αMe4Pal]LIE[Aib]GPSSGAPPPSGEE-NH2 [Example 1121]", 9.94),
    ("H-Y[Aib]QGTFTSDFS[Orn][αMeL]LDKK([AEEA-γGlu-C18 diacid])AQ[Aib]AFIEYLLAGGPSSGAPPPEGE-NH2 [Example 99]", 9.76),
]

Would you kindly look at the next entry?
Q: Kindly state the measured pEC50 obtained for H-Y[Aib]QGTFTSDFS[Orn][αMeL]LDKK([AEEA-γGlu-C18 diacid])AQ[Aib]AFIEWLLEGGSSSGAPPPSGH-NH2 [Example 270] with hGIPR (Homo sapiens, UniProt P48546).
A: 9.59
